target: human IgG conjugated with fluorescein isothiocyanate (IgG-FITC) (human); assay: MST; hIgG-FITC (Sigma F9636) fixed at 25 nM; 16 samples of E6_M2_T2 from 695 nM in 1:2 serial dilution; PBS, 0.05% Tween-20, pH 7.4; 25 C; fit models Kd and Hill
Property label: Kd (nM)

Binder	Assay result
E6_M2_T2 (head-to-tail dimer of E6_M2) (designed binder) CSGKLPPGWEERKTRRFKLGRTYYYNHHILSKTSQWEHPRGSSSGKLPPGWEERKTRRFKLGRTYYYNHHILSKTSQWEHPRGSS	62
